The measurements presented in this section are drawn from PubChem BioAssay (NCI).

Tested on: P388 leukemia
Test: NCI tumour cell line growth inhibition, 48 h
TGI values, listed per item
Record the value in µM, omitting the unit from your answer.

O=C1N[C@@H]([C@H]2CC[C@H](Cl)CN2)C(=O)N[C@H]1[C@H]1CC[C@H](Cl)CN1 ... 20.3
O=C1C=C2SC3C[C@@]24CC1(O)[N+]1=c2c4c(c(O)c4c2=C(C=N4)CC1)N3 ... 4.78
COc1cc(C2c3cc4c(cc3[C@@H](Nc3ccc(F)cc3)C3COC(=O)[C@H]23)OCO4)cc(OC)c1O (some centres undefined) ... 1.61

Record COc1cccc2c1C(=O)c1c(O)c3c(c(O)c1C2=O)C[C@@](O)(C(C)=O)C[C@@H]3OC1CC(N(Cc2ccccc2)Cc2ccccc2)C(O)C(C)O1 (some centres undefined) , field TGI: 12.3

====

Tested on: HOP-62 NSCLC
Assay: NCI tumour cell line growth inhibition, 48 h
GI50 values, listed per item

COc1cc(/C=N\Nc2ccccc2)ccc1OC(=O)c1ccccc1 ... 8.38 µM
CC(=O)[CH-]C(=O)c1ccccc1.CC(=O)[CH-]C(=O)c1ccccc1.Cl.[O-]CCc1ccccn1.[O-]CCc1ccccn1.[Ti+4] ... 23.6 µM

Turning now to a further compound:
Record COc1cc(/C=N/NC(=O)c2cnn3c2NC(c2ccccc2)C3)ccc1OCc1ccccc1 (stereo not drawn) , field GI50: 1.2 µM

====

Test system: SK-MEL-5 melanoma
Test: NCI tumour cell line growth inhibition, 48 h
TGI values, listed per item
Record the value in µM, omitting the unit from your answer.

# annotated cases, reported TGI shown
NP1(Oc2ccc(F)cc2)=NP(N)(Oc2ccc(F)cc2)=NP(Oc2ccc(F)cc2)(Oc2ccc(F)cc2)=N1 (stereo not drawn) ... 17.8
O=C1C=C2SC3C[C@@]24CC1(O)[N+]1=c2c4c(c(O)c4c2=C(C=N4)CC1)N3 ... 2.91
O=C(CC(C(=O)c1ccsc1)c1cccs1)c1cccs1 (stereo not drawn) ... 85.6
C=CCN(C(C)=O)c1cc(OCc2ccccc2)c2c(c1)c(C)cn2S(=O)(=O)c1ccccc1 ... 21.5
CCCCCCCC(=O)NC(C)(C)C(=O)NCC(=O)NC(CC(C)C)C(=O)NC(C)(C)C(=O)NCC(=O)NCC(=O)NC(CC(C)C)C(=O)NC(C)(C)C(=O)NCC(=O)NC(C(=O)NC(CO)CC(C)C)C(C)CC (stereo not drawn) ... 7.19

Field TGI (system: SK-MEL-5 melanoma) for entry CC(C)(C)n1cc(-c2ccnc(NCCCNS(=O)(=O)c3cccc4ccccc34)c2)c(-c2cccc(O)c2)n1 = 2.85

Field TGI (system: SK-MEL-5 melanoma) for entry OC[C@H]1C[C@](O)(c2ccccc2Cl)[C@@H](c2ccccc2Cl)O1 = 31.6

Field TGI (system: SK-MEL-5 melanoma) for entry CCCCCCCCCC(=O)Oc1ccc(/C(=C(/C)c2ccccc2)c2ccc(OCCN3CCCC3)cc2)cc1 = 14.9

Field TGI (system: SK-MEL-5 melanoma) for entry COc1oc(C2C/C(=C/C(C)=C/C(C)=C/C(C)=C/c3ccc([N+](=O)[O-])cc3)CO2)c(C)c(=O)c1C (stereo not drawn) = 3.61

====

System: CCRF-CEM leukemia
Assay: NCI tumour cell line growth inhibition, 48 h
Observable: TGI

# annotated cases, reported TGI shown
CCCC(O)c1ccc2[nH]c3c(C)cc([N+](=O)[O-])c(C)c3c2c1 (centres undefined) ... > 100 µM
CN(C)CCCn1c(-c2ccc(Br)cc2)csc1=Nc1ccccc1 ... > 100 µM
O=C1c2c(c3c4ccccc4n(CC4CO4)c3c3[nH]c4ccccc4c23)C(=O)N1Cc1ccccc1 (centres undefined) ... > 100 µM
Cc1c(CCCl)c(Cl)n2c(nc3ccccc32)c1C#N ... 3.36 µM
CC(=O)CC(O)(C(F)(F)Cl)C(F)(Cl)Cl (centres undefined) ... > 10 µM

Record CN(C(=O)C12C3C4C1C1C2C3C41C#N)C(C)(C)C (centres undefined) , field TGI: > 100 µM

Record COc1ccc2cc(CNCCCCCCNC(=O)Nc3cccc4ccccc34)ccc2c1 , field TGI: > 100 µM

Record N#Cc1cnn(C(=O)c2nn(-c3ccc(Cl)cc3)cc2O)c1N , field TGI: 4.03 µM

Record CCOc1c2c(cc3c1C(=O)c1c(OC)cccc1C3=O)C=C(OC)CC2 , field TGI: > 25 µM

Record CCCNC(=O)c1cc(OC)c(OC)cc1NC(=O)C12CC3CC(CC(C3)C1)C2 , field TGI: > 100 µM

Record COC(=O)[C@]12CC[C@@H](C)[C@H](C)[C@@H]1C1=CC[C@@H]3[C@@]4(C)C[C@@H](OC(C)=O)[C@H](OC(C)=O)[C@@](C)(COC(C)=O)[C@@H]4[C@H](O)C[C@@]3(C)[C@]1(C)CC2 , field TGI: > 100 µM
